metric: melting point (°C)
Write it as a number; the unit °C goes unstated.

compound	melting point / °C
COc1ccc(NC(=O)C(C)=NNC(N)=S)cc1	234
CC1=C(O)C(=O)CC(C)(C)C1	89
O=C(Nc1ccccc1[N+](=O)[O-])c1ccccc1	96
CCNCCO	-6
NC(=S)c1ccccc1	116

The reported value for NC(=O)C1CCNCC1 in terms of melting point is 148

The recorded melting point for O=C=Nc1cccc2c(N=C=O)cccc12 is 130

The compound identified as Cc1cccc(C)c1N(C(=O)CCl)C1CCOC1=O (stereo not drawn) registered its melting point at 146

// recorded melting point for C/C(CCc1ccc2c(c1)NC(C)CC2)=N\NC(N)=O (stereo not drawn) : 128

Note to self: melting point recorded for Cc1ccccc1NN=C1C(=O)NC(=O)NC1=O was 265

Brc1cccc(Br)c1Br has a reported melting point of 87.5

The recorded melting point for entry C1=CCC(c2ccncc2)CC1 (stereo not drawn) equals 22.1

Record OC1C(Cl)(Cl)CCCC1(Cl)Cl . Reported melting point: 55

Value of melting point reported for the compound C/C(=N\c1ccccc1C)c1c(O)c2ccccc2n(-c2ccccc2)c1=O is 140

Form: compound = CCC(Cc1c(I)cc(I)c(N)c1I)C(=O)O (stereo not drawn) ; melting point = 155

The reported melting point of the compound CC(=O)c1ccc(C#N)s1 was 78

Values were extracted from a melting point compilation (Tetko et al.).
